target: SRY HMG box Y72C (Y127C) (Homo sapiens, UniProt Q05066 56-141, Y127C); assay: FRET titration; 15 C, 25 nM DNA; FRET titration: 10 mM potassium phosphate, 10 mM Tris-HCl, 140 mM KCl, 1 mM EDTA, 1 mM DTT, pH 8.4, 15 C, 25 nM DNA; PGE: 10 nM DNA, 20 nM protein, 0.5x TBE, 4; conditions: protein: recombinant; label: 5'-6-FAM (hexanyl linker) on upper strand; 5'-TAMRA (hexanyl linker) on lower strand; blunt
Sequence (Q05066 56-141 Y127C): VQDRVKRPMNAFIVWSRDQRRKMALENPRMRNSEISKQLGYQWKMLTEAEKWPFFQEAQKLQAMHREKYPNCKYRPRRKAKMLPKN
Readout type: pKd
Convention used: pKd is expressed as -log10 of the molar concentration.

Determine its reported pKd: 15-bp consensus SRY site, FRET-labeled (dsDNA) DNA 1: TCGGTGATTGTTCAG DNA 2: CTGAACAATCACCGA 7.68

This collection of values is drawn from paper PMC9360328.
